target: 14-3-3 protein zeta/delta (Homo sapiens, UniProt P63104); experiment: Binding affinity to 14-3-3 zeta (unknown origin) assessed as 14-3-3 zeta-synaptopodin interaction by fluorescence polarization assay
Sequence (P63104 whole entry): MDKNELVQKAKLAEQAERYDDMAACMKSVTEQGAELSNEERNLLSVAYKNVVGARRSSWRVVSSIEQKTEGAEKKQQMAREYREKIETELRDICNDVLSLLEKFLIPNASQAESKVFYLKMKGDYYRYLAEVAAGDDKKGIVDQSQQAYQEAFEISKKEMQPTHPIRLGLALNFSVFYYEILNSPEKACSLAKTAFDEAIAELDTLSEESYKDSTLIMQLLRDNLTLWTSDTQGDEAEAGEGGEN

smiles-representation	tested-target	EC50 [µM]
O=C(N/N=C/c1cccc(Cl)c1Cl)c1ccccc1P(=O)(O)O	14-3-3 protein zeta/delta (Homo sapiens, UniProt P63104)	120
